Molecular target: MD-2 (Homo sapiens, UniProt Q9Y6Y9)
Construct: gene LY96; Recombinant human MD-2 (R&D Systems #1787-MD-050/CF), covalently immobilized
Sequence (Q9Y6Y9 19-160): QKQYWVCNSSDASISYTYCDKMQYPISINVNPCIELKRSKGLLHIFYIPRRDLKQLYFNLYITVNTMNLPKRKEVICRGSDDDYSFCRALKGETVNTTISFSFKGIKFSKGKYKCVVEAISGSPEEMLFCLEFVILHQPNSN
Assay: SPR competition assay: inhibition of Lipid A binding to immobilized hMD-2
pKi: −log10 of the molar value.
OBSERVATION_TYPE: pKi

>>> test_value("CC(=O)[C@H]1CC[C@H]2[C@@H]3CC[C@H]4C[C@H](O)CC[C@]4(C)[C@H]3CC[C@]12C [3α,5α-THP, (3α,5α)-3-hydroxypregnan-20-one]")
8.35
